Where do the numbers come from? From PubChem BioAssay (Tox21).

biological target: Nuclear receptor subfamily 1 group I member 2 (Rattus norvegicus) (UniProt Q9R1A7); test: Rat pregnane X receptor (rPXR) activation by small molecules, qHTS assay (AID 1346983); details: rPXR luciferase reporter cells, One-Glo luminescence, 24 h; hits give high values; also: % is scaled to controls: 0 for no effect and ±100 for the full control effect; nearly all actives have a fitted effect of over 20% in size
Sequence (Q9R1A7 whole entry, looked up): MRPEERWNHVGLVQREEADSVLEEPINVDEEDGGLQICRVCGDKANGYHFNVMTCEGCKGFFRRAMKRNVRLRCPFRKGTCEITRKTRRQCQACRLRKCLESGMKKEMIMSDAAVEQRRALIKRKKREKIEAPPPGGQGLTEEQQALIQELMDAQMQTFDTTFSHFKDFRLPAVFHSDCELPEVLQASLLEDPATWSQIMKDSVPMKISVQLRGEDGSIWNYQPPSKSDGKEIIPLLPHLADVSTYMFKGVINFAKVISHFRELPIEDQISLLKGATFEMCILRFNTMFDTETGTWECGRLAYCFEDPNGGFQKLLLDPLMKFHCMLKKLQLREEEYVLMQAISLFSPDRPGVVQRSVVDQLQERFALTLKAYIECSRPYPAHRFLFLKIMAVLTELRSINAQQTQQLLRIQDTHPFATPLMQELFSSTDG
Records with an inconclusive call do not appear.

>  <smiles-repr>
CC(=O)N[C@@H](CS)C(=O)O

>  <system>
Nuclear receptor subfamily 1 group I member 2 (Rattus norvegicus) (UniProt Q9R1A7)

>  <max activation / %>
-0.291

$$$$
>  <smiles-repr>
Cc1ccc(-c2cc(C(F)(F)F)nn2-c2ccc(S(N)(=O)=O)cc2)cc1

>  <system>
Nuclear receptor subfamily 1 group I member 2 (Rattus norvegicus) (UniProt Q9R1A7)

>  <max activation / %>
0.916

$$$$
>  <smiles-repr>
CCCN[C@H]1CCc2nc(N)sc2C1

>  <system>
Nuclear receptor subfamily 1 group I member 2 (Rattus norvegicus) (UniProt Q9R1A7)

>  <max activation / %>
-1.97

$$$$
>  <smiles-repr>
O=C(OCc1ccccc1)c1ccc(O)cc1

>  <system>
Nuclear receptor subfamily 1 group I member 2 (Rattus norvegicus) (UniProt Q9R1A7)

>  <max activation / %>
0.826

$$$$
>  <smiles-repr>
CC(C)CCCCCCc1ccc(O)cc1

>  <system>
Nuclear receptor subfamily 1 group I member 2 (Rattus norvegicus) (UniProt Q9R1A7)

>  <max activation / %>
-6.01

$$$$
>  <smiles-repr>
Cc1ccnc2c1NC(=O)c1cccnc1N2C1CC1

>  <system>
Nuclear receptor subfamily 1 group I member 2 (Rattus norvegicus) (UniProt Q9R1A7)

>  <max activation / %>
-1.62

$$$$

====

test: qHTS assay to identify small molecule agonists of the estrogen receptor beta (ER-beta) signaling pathway - cell viability counter screen (AID 1259380); details: ER-beta-bla HEK293T viability, CellTiter-Glo luminescence, 16 h; series mostly up to 92.4 µM; also: nearly all actives have a fitted effect of over 30% in size; also: potency is read from the fitted curve at half-maximal effect
Results filed as inconclusive are left out. Activity calls are given as the source filed them. Calls follow the shape of the dose curve; as a rule, active = well fitted cell-killing curve with a large enough effect in the repeat runs; inconclusive = weak or mixed curves, or effect the other way; inactive = flat fitted curve, though single readings scatter.

>  <molecule>
CC1=C(C=O)C(C)(C)CC=C1

>  <Potency>
inactive

$$$$
>  <molecule>
OCCOCCN1CCN(C(c2ccccc2)c2ccc(Cl)cc2)CC1 (stereo unspecified)

>  <Potency>
30.2 µM (active)

$$$$
>  <molecule>
O=C(O)c1cn(-c2ccc(F)cc2)c2cc(N3CCNCC3)c(F)cc2c1=O

>  <Potency>
inactive

$$$$
>  <molecule>
COC(=O)c1cccc(C(=O)OC)c1

>  <Potency>
inactive

$$$$
>  <molecule>
CCc1ccc(C(c2ccc(CC)cc2)C(Cl)Cl)cc1

>  <Potency>
inactive

$$$$
>  <molecule>
O=C(O)CP(=O)(O)O

>  <Potency>
inactive

$$$$
>  <molecule>
C=CC(=O)OCCCCCCOC(=O)C=C

>  <Potency>
24.3 µM (active)

$$$$
>  <molecule>
CC(=O)OCC1=C(C(=O)O)N2C(=O)[C@@H](NC(=O)Cc3cccs3)[C@H]2SC1

>  <Potency>
inactive

$$$$
>  <molecule>
c1ccc2cc3c(ccc4ccccc43)cc2c1

>  <Potency>
inactive

$$$$
>  <molecule>
C1COC(NC(C2CC2)C2CC2)=N1

>  <Potency>
inactive

$$$$
>  <molecule>
CCC(=O)/C=C/C1C(C)=CCCC1(C)C (stereo unspecified)

>  <Potency>
inactive

$$$$
>  <molecule>
C=C(C)C(=O)O

>  <Potency>
inactive

$$$$
>  <molecule>
C=CS(=O)(=O)O

>  <Potency>
inactive

$$$$
>  <molecule>
Cc1ccnc2c1NC(=O)c1cccnc1N2C1CC1

>  <Potency>
inactive

$$$$
>  <molecule>
C=CC(=O)OCCCCCCCC

>  <Potency>
inactive

$$$$
>  <molecule>
CC(=O)N[C@@H](CS)C(=O)O

>  <Potency>
inactive

$$$$

====

molecular target: Nuclear receptor subfamily 1 group I member 2 (Homo sapiens); assay: Human pregnane X receptor (PXR) small molecule agonists, qHTS assay (AID 1346982); conditions: PXR-Luc HepG2, CYP3A4 luciferase reporter, 24 h; series mostly up to 92.4 µM; also: nearly all actives have a fitted effect of over 35% in size; as to activation: % is scaled to controls: 0 for no effect and ±100 for the full control effect
Records with an inconclusive call do not appear. Activity calls are given as the source filed them. Calls come from the whole dose curve; as a rule, active = well fitted activation curve with a large enough effect in the repeat runs; inconclusive = weak or mixed curves; inactive = no such curve, though single readings can be large or run the other way. Starred links: 1 amine or outer side, 2 acyl side, 3 side chain; linkers in the order of their positions; H or OH if unused. Positions of bridges follow the written chain, without caps; N, C: chain ends. Non-standard residues stand in square brackets, D forms with d. Residues, ends and D or L forms follow the SMILES beside them. Chains are numbered I, II in the order given. Actinocin(9to1) = Cc1c2oc3c(C)ccc(C(=O)[*:1])c3nc-2c(C(=O)[*:2])c(N)c1=O; NMeV = CN[C@H](C(=O)O)C(C)C; Sar = CNCC(=O)O
Outcomes: 1 (active), -1 (inactive)

>  <molecule>
CC(C)(C)c1ccc(O)c(C(C)(C)C)c1

>  <qualitative-label>
-1

$$$$
>  <molecule>
Cc1c2oc3c(C)ccc(C(=O)N[C@@H]4C(=O)N[C@H](C(C)C)C(=O)N5CCC[C@H]5C(=O)N(C)CC(=O)N(C)[C@@H](C(C)C)C(=O)O[C@@H]4C)c3nc-2c(C(=O)N[C@@H]2C(=O)N[C@H](C(C)C)C(=O)N3CCC[C@H]3C(=O)N(C)CC(=O)N(C)[C@@H](C(C)C)C(=O)O[C@@H]2C)c(N)c1=O (I: T[dV]P[Sar][NMeV] / II: T[dV]P[Sar][NMeV]; ester I:1-I:C, II:1-II:C; linker I:N-II:N via Actinocin(9to1))

>  <qualitative-label>
-1

$$$$
>  <molecule>
Cc1cccc([N+](=O)[O-])c1C(=O)O

>  <qualitative-label>
-1

$$$$
>  <molecule>
C=CC(=O)OCCCCCCOC(=O)C=C

>  <qualitative-label>
-1

$$$$
>  <molecule>
COc1ccc(Cc2cnc(N)nc2N)cc1OC

>  <qualitative-label>
-1

$$$$
>  <molecule>
CCN1CCCC1CNC(=O)c1cc(S(=O)(=O)CC)c(N)cc1OC (stereo unspecified)

>  <qualitative-label>
-1

$$$$
>  <molecule>
CC(C)(C)c1ccccc1

>  <qualitative-label>
-1

$$$$
>  <molecule>
C=CS(=O)(=O)O

>  <qualitative-label>
-1

$$$$
>  <molecule>
O=C(Cl)c1cccc(C(=O)Cl)c1

>  <qualitative-label>
-1

$$$$
>  <molecule>
[Cl][In]([Cl])[Cl]

>  <qualitative-label>
-1

$$$$
>  <molecule>
NC(N)=Nc1nc(CSCC/C(N)=N/S(N)(=O)=O)cs1

>  <qualitative-label>
-1

$$$$
>  <molecule>
O=C(O)CP(=O)(O)O

>  <qualitative-label>
-1

$$$$
>  <molecule>
Nc1nc(=S)c2[nH]cnc2[nH]1

>  <qualitative-label>
-1

$$$$
>  <molecule>
CC(=O)CC(=O)Nc1ccc2[nH]c(=O)[nH]c2c1

>  <qualitative-label>
-1

$$$$
>  <molecule>
CC(=O)OCC1=C(C(=O)O)N2C(=O)[C@@H](NC(=O)Cc3cccs3)[C@H]2SC1

>  <qualitative-label>
-1

$$$$
>  <molecule>
O=S(=O)(O)c1ccc2nc(-c3ccccc3)[nH]c2c1

>  <qualitative-label>
-1

$$$$
>  <molecule>
O=C(Oc1ccccc1)c1ccccc1O

>  <qualitative-label>
-1

$$$$
>  <molecule>
c1ccc2n[nH]nc2c1

>  <qualitative-label>
-1

$$$$
>  <molecule>
CC1COC(=O)O1 (stereo unspecified)

>  <qualitative-label>
-1

$$$$
>  <molecule>
CCCCCCCCCCCCc1ccccc1O

>  <qualitative-label>
1

$$$$
>  <molecule>
CCC(=O)/C=C/C1C(C)=CCCC1(C)C (stereo unspecified)

>  <qualitative-label>
1

$$$$

====

experiment: Human pregnane X receptor (PXR) small molecule agonists, qHTS cell viability counter screen (AID 1346977); conditions: PXR-Luc HepG2 viability, CellTiter-Fluor, 24 h; series mostly up to 92.4 µM; also: nearly all actives have a fitted effect of over 50% in size; also: potency is read from the fitted curve at half-maximal effect
Results filed as inconclusive are left out. The source made the active and inactive calls. Calls come from the whole dose curve; as a rule, active = well fitted cell-killing curve with a large enough effect in the repeat runs; inconclusive = weak or mixed curves, or effect the other way; inactive = flat fitted curve, though single readings scatter.

>  <compound>
OCCOCCN1CCN(C(c2ccccc2)c2ccc(Cl)cc2)CC1 (stereo not drawn)

>  <Potency>
24 µM (active)

$$$$
>  <compound>
CC1COC(=O)O1 (stereo not drawn)

>  <Potency>
inactive

$$$$
>  <compound>
Cc1cc(OCCOCC[N+](C)(C)Cc2ccccc2)ccc1C(C)(C)CC(C)(C)C

>  <Potency>
54.2 µM (active)

$$$$
>  <compound>
NC(N)=Nc1nc(CSCC/C(N)=N/S(N)(=O)=O)cs1

>  <Potency>
inactive

$$$$
>  <compound>
CC(=O)O[C@]1(C(C)=O)CC[C@H]2[C@@H]3C[C@H](C)C4=CC(=O)CC[C@]4(C)[C@H]3CC[C@@]21C

>  <Potency>
inactive

$$$$
>  <compound>
CCc1cc(C(C)(C)C)c(O)c(C(C)(C)C)c1

>  <Potency>
inactive

$$$$
>  <compound>
CCCCOCCOC(=O)c1ccccc1C(=O)OCCOCCCC

>  <Potency>
inactive

$$$$
>  <compound>
CCCCCCC(O)CCCCCCCCCCC(=O)O (stereo not drawn)

>  <Potency>
inactive

$$$$
